- measurement.parameters: human gut metagenome, 24 h, 2 µM; further: call rule not given here
endpoint: Bacterial Biotransformation

CC(C)(C)N.CCC[C@H](N[C@@H](C)C(=O)N1[C@H](C(=O)O)C[C@@H]2CCCC[C@@H]21)C(=O)OCC : Compound metabolized
CC(N)C12CC3CC(CC(C3)C1)C2 (stereo unspecified) : Compound NOT metabolized
Cc1ccccc1C(OCCN(C)C)c1ccccc1.O=C(O)CC(O)(CC(=O)O)C(=O)O (stereo unspecified) [ORPHENADRINE CITRATE] : Compound NOT metabolized
CN(C)CCOC(C)(c1ccccc1)c1ccccn1.O=C(O)CCC(=O)O (stereo unspecified) [DOXYLAMINE SUCCINATE] : Compound NOT metabolized
CC(C)[C@H]1CC[C@H](C(=O)N[C@H](Cc2ccccc2)C(=O)O)CC1 [NATEGLINIDE] : Compound metabolized
CCCN1C[C@H](CSC)C[C@@H]2c3cccc4[nH]cc(c34)C[C@H]21.CS(=O)(=O)O [PERGOLIDE MESYLATE] : Compound NOT metabolized
COc1ccc(Cc2nccc3cc(OC)c(OC)cc23)cc1OC : Compound metabolized
O=C1N=C([O-])NC1(c1ccccc1)c1ccccc1.[Na+] [PHENYTOIN SODIUM] : Compound metabolized
CC1Cc2ccccc2N1NC(=O)c1ccc(Cl)c(S(N)(=O)=O)c1 (stereo unspecified) [INDAPAMIDE] : Compound NOT metabolized
CC(C)C[C@H]1C(=O)N2CCC[C@H]2[C@]2(O)O[C@](NC(=O)[C@@H]3C=C4c5cccc6[nH]c(Br)c(c56)C[C@H]4N(C)C3)(C(C)C)C(=O)N12.CS(=O)(=O)O [BROMOCRIPTINE MESYLATE] : Compound metabolized

Shifting focus to the molecule that follows.
Prompt line: GET /values?readout=Bacterial Biotransformation&item= COC(=O)[C@H](c1ccccc1Cl)N1CCc2sccc2C1.O=S(=O)(O)O [CLOPIDOGREL BISULFATE]
Response line: Compound metabolized
